# Test system: MARK4;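 further: KINOMEscan kinase panel screen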
# experimental_conditions: concentration: 1 μM, replicates: in singlicate; n = 1
Collected %Inh values appear next to each entry.
Just the number please, in %, no unit attached.

Examples with their reported %Inh follow.
compound	test_result
O=C(NCCCN1CCOCC1)c1cccc(Nc2nccc(Nc3ccc(Oc4ccccc4)cc3)n2)c1	0
COc1cc2c(cc1OC[C@@H](O)CO)ncc1c3ccc(C#N)cc3[nH]c21	0
Cl.Nc1ncnc2occ(-c3ccc(NC(=O)Nc4cc(C(F)(F)F)ccc4F)cc3)c12	0
Cc1cccc(-c2nc(-c3ccc(S(C)(=O)=O)cc3)sc2-c2ccncc2)c1	31

Consider now this further compound.
[Q] Entry under review: Cc1c(Cn2c(C)nn3c(=O)cc(N4CCOC(C)C4)nc23)cccc1C(F)(F)F (centres unmarked) . Reported %Inh?
[A] 0
